B1: Intersectin-1, residues 1156 to 1213; numbered along this chain, Q15811 (parent)
chain: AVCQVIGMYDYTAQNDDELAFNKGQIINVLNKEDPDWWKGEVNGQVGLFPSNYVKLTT

Variants of: B1
Test: abundance fitness (aPCA) (normalised: wild type 0, dead -1); higher = more abundant; growth selection in yeast, the domain comes from the species named
Settings: Homo sapiens
We use -0.3 as the dividing line for abundance fitness: on or above the line is YES, below is NO.

Prompt: Test whether the variant `AVCQVIGMYDYTAQNDDELAFNKGQIINVLNKEDPDWWKGEVNGQVGLFPSNYVKATT` records abundance fitness of -0.3 or higher.
Response: YES

Prompt: Do the same for `AVCQVIGMYDYTAQNDDELAFNKGQIINVLNKEDPDWWKGEVNGQVGQFPSNYVKLTT` please
Response: NO

Prompt: Same question for `AVCQVIGMYDYTAQNDDELAFNKGQIINSLNKEDPDWWKGEVNGQVGLFPSNYVKLTT` please.
Response: NO

Prompt: Repeat for the following variant: `AVCQVIGMYDYTAQNDDELAFNKGQIINVLNKEDPDRWKGEVNGQVGLFPSNYVKLTT`
Response: NO

Prompt: What do you have for `AVCQVIGMYDYTAQNDDELAFNKGQIINVLNKEDPDWWKGEVNGQVGLFPSNYVKLDT` ?
Response: YES

Prompt: Similarly, `AVCQVIGMYDYTAQNDDELAFNKGQIINVLNKEDPDWWKGEVNGQVGLFPSNYVKQTT` ?
Response: YES

Prompt: Item: `AVCTVIGMYDYTAQNDDELAFNKGQIINVLNKEDPDWWKGEVNGQVGLFPSNYVKLTT`
Response: YES

Prompt: Entry to check: `AVCQVIGMYDYTAQNDDELAFNKGQIINVLDKEDPDWWKGEVNGQVGLFPSNYVKLTT`
Response: YES

Prompt: Now consider `AVCQVIGMYDYTAQNDDELAFNKWQIINVLNKEDPDWWKGEVNGQVGLFPSNYVKLTT` .
Response: NO

Prompt: Same again, this time with `AVCQVIGMYDYTAQNDDELAFNKGQIINVLNKEDPDWEKGEVNGQVGLFPSNYVKLTT`
Response: NO

Prompt: What about this variant? `AVCQVIGMYDYTAQNDDELAFNKGQIINVLVKEDPDWWKGEVNGQVGLFPSNYVKLTT`
Response: NO

Prompt: # repeat for `AVCQVIGMYDYTAQNDDELAFNKGQIINVLNKIDPDWWKGEVNGQVGLFPSNYVKLTT`
Response: NO

Prompt: Field entry: `AVCQVIGMYDYTAQNDDELAFNKGQIINVLNKEDPDWWKGEVNGQVGLFPSNYVKLTS`
Response: YES

Prompt: Request: `AVCQVIGMYDYTAQNDDELAFNKGQIINVLNKEDPDWWKGELNGQVGLFPSNYVKLTT`
Response: YES

Prompt: Also need `AVCQVIGMYDYTAQNDDELAFNKGQIINVLNKEDPDWWKGKVNGQVGLFPSNYVKLTT` , thanks.
Response: NO

Prompt: Thanks! And `AVCQVIGMYDYTAQNDDELAFNKGQIINVLNKEDPDWWKGEVNGQVGLFHSNYVKLTT` ?
Response: NO

Prompt: Quick one: `AVCQVIGMYDYTAQNDDELAFNKGQIINVLNKEDPDWWKGEVNGQQGLFPSNYVKLTT`
Response: YES

Prompt: Try `AVCQVIGMYDYTEQNDDELAFNKGQIINVLNKEDPDWWKGEVNGQVGLFPSNYVKLTT` next.
Response: NO

Prompt: Next up: `AVCQVIGMYDYTAQNDDELAFNKGQIINVLNKEDPDWWKGEVNGQVGLFCSNYVKLTT`
Response: NO
